Cited source: patent US9657037B2

system: Mycobacterium tuberculosis H37Rv; test: Antitubercular activity, growth inhibition by Alamar-Blue / resazurin microtiter assay; format: cell-based; conditions: H37RV
endpointLabel: MIC (µg/mL)
Write the number in µg/mL without appending the unit.

### Prompt Given Cc1ccc(-c2cc(CN3CC[Si](C)(C)CC3)c(C)n2-c2ccc(F)cc2)cc1 , respond with its MIC.
### Response 0.04

### Prompt Given Cc1c(CN2CC[Si](C)(C)CC2)cc(-c2ccc(Cl)cc2)n1-c1ccccc1 , respond with its MIC.
### Response 0.04

### Prompt Given Cc1c(CN2CC[Si](C)(C)CC2)cc(-c2ccc(C(C)C)cc2)n1-c1ccc(Cl)cc1 [Compound 11a] , respond with its MIC.
### Response 0.04

### Prompt Given CSc1ccc(-c2cc(CN3CC[Si](C)(C)CC3)c(C)n2-c2ccc(F)cc2)cc1 [Compound 10a] , respond with its MIC.
### Response 0.08
